As shown below, each of these compounds has a reported Total accumulated dose passed through the skin into the reservoir value.
# PROCEDURE_DETAILS: In vitro skin permeation, Franz diffusion cell system
# Type: in vitro ADME, human
# PARTICULARS: 4 hrs; 1.0 wt % in squalane, 5 μl, nominal 90.91 μg/cm^2
The response must be a number in μg/cm^2 with no trailing unit.

These solved cases illustrate the format of a correct answer.
CC(C)CCCC(C)CCCC(C)CC(=O)OC[C@H](OC(=O)CC(C)CCCC(C)CCCC(C)C)C1OC(=O)C(O)=C1O (stereo partly shown) [Compound (II-A)]	0.17
CC(C)CCCC(C)CCCC(C)CC(=O)OC[C@H](OC(=O)CC(C)CCCC(C)CCCC(C)C)C1OC(=O)C(OC(=O)CC(C)CCCC(C)CCCC(C)C)=C1OC(=O)CC(C)CCCC(C)CCCC(C)C (stereo partly shown) [Compound (II-C)]	0.05
CC(C)CCCC(C)CCCC(C)CC(=O)OC[C@H](OC(=O)CC(C)CCCC(C)CCCC(C)C)C1OC(=O)C(O)=C1OC(=O)CC(C)CCCC(C)CCCC(C)C (stereo partly shown) [Compound (II-B)]	0.00

Shifting focus to the compound that follows.
[ask] Fill in reported Total accumulated dose passed through the skin into the reservoir for this entry: CCCCCCCCC(CCCCCC)C(=O)OCC(OC(=O)C(CCCCCC)CCCCCCCC)C1OC(=O)C(OC(=O)C(CCCCCC)CCCCCCCC)=C1OC(=O)C(CCCCCC)CCCCCCCC (stereo not shown) [Tetrahexydecyl ascorbate, tetrahexydecyl ascorbate, reference compound]
[reply] 0.00

---

# PROCEDURE_DETAILS: In vitro skin permeation, Franz diffusion cell system
# Assay type: in vitro ADME, human
# PARTICULARS: 24 hrs; 1.0 wt % in squalane, 5 μl, nominal 90.91 μg/cm^2
REPORTED_METRIC: Total accumulated dose passed through the skin into the reservoir (μg/cm^2)
Numbers only; they are read as μg/cm^2.

// below: answered compounds
CC(C)CCCC(C)CCCC(C)CC(=O)OC[C@H](OC(=O)CC(C)CCCC(C)CCCC(C)C)C1OC(=O)C(O)=C1OC(=O)CC(C)CCCC(C)CCCC(C)C (stereo partly shown)	0.00
CC(C)CCCC(C)CCCC(C)CC(=O)OC[C@H](OC(=O)CC(C)CCCC(C)CCCC(C)C)C1OC(=O)C(OC(=O)CC(C)CCCC(C)CCCC(C)C)=C1OC(=O)CC(C)CCCC(C)CCCC(C)C (stereo partly shown)	0.04
CCCCCCCCC(CCCCCC)C(=O)OCC(OC(=O)C(CCCCCC)CCCCCCCC)C1OC(=O)C(OC(=O)C(CCCCCC)CCCCCCCC)=C1OC(=O)C(CCCCCC)CCCCCCCC (stereo not shown) [Tetrahexydecyl ascorbate, tetrahexydecyl ascorbate, reference compound]	0.00

[ask] Tell me its Total accumulated dose passed through the skin into the reservoir given CC(C)CCCC(C)CCCC(C)CC(=O)OC[C@H](OC(=O)CC(C)CCCC(C)CCCC(C)C)C1OC(=O)C(O)=C1O (stereo partly shown) as the entry.
[reply] 0.20

---

# PROCEDURE_DETAILS: In vitro skin permeation, Franz diffusion cell system
# Type: in vitro ADME, human
# PARTICULARS: measured at 24 hours; 1.0 wt % in squalane, 5 μl, nominal 90.91 μg/cm^2
Reported Total accumulated dose in Epidermis is given for each of the following compounds.
Answer format: numeric, μg/cm^2 implied, no suffix.

Below: 3 compounds and their reported Total accumulated dose in Epidermis.
CCCCCCCCC(CCCCCC)C(=O)OCC(OC(=O)C(CCCCCC)CCCCCCCC)C1OC(=O)C(OC(=O)C(CCCCCC)CCCCCCCC)=C1OC(=O)C(CCCCCC)CCCCCCCC (stereo not shown) [Tetrahexydecyl ascorbate, tetrahexydecyl ascorbate, reference compound]	25.78
CC(C)CCCC(C)CCCC(C)CC(=O)OC[C@H](OC(=O)CC(C)CCCC(C)CCCC(C)C)C1OC(=O)C(O)=C1O (stereo partly shown) [Compound (II-A)]	9.28
CC(C)CCCC(C)CCCC(C)CC(=O)OC[C@H](OC(=O)CC(C)CCCC(C)CCCC(C)C)C1OC(=O)C(O)=C1OC(=O)CC(C)CCCC(C)CCCC(C)C (stereo partly shown) [Compound (II-B)]	4.41

Next item in the queue.
[ask] Complete the entry with Total accumulated dose in Epidermis for CC(C)CCCC(C)CCCC(C)CC(=O)OC[C@H](OC(=O)CC(C)CCCC(C)CCCC(C)C)C1OC(=O)C(OC(=O)CC(C)CCCC(C)CCCC(C)C)=C1OC(=O)CC(C)CCCC(C)CCCC(C)C (stereo partly shown) [Compound (II-C)]
[reply] 1.02

---

Reported Total accumulated dose in Dermis values for the following compounds.
# PROCEDURE_DETAILS: In vitro skin permeation, Franz diffusion cell system
# Assay type: in vitro ADME, human
# PARTICULARS: measured at 24 hours; 1.0 wt % in squalane, 5 μl, nominal 90.91 μg/cm^2
Return type: number; implicit unit μg/cm^2.

CC(C)CCCC(C)CCCC(C)CC(=O)OC[C@H](OC(=O)CC(C)CCCC(C)CCCC(C)C)C1OC(=O)C(O)=C1OC(=O)CC(C)CCCC(C)CCCC(C)C (stereo partly shown)	1.37
CCCCCCCCC(CCCCCC)C(=O)OCC(OC(=O)C(CCCCCC)CCCCCCCC)C1OC(=O)C(OC(=O)C(CCCCCC)CCCCCCCC)=C1OC(=O)C(CCCCCC)CCCCCCCC (stereo not shown) [Tetrahexydecyl ascorbate, tetrahexydecyl ascorbate, reference compound]	0.18
CC(C)CCCC(C)CCCC(C)CC(=O)OC[C@H](OC(=O)CC(C)CCCC(C)CCCC(C)C)C1OC(=O)C(O)=C1O (stereo partly shown)	0.85

Moving on to the next compound.
[ask] Please indicate Total accumulated dose in Dermis recorded for CC(C)CCCC(C)CCCC(C)CC(=O)OC[C@H](OC(=O)CC(C)CCCC(C)CCCC(C)C)C1OC(=O)C(OC(=O)CC(C)CCCC(C)CCCC(C)C)=C1OC(=O)CC(C)CCCC(C)CCCC(C)C (stereo partly shown)
[reply] 0.01

---

# PROCEDURE_DETAILS: Static contact angle (wetting) on glass / PTFE
# Type: physicochemical
# PARTICULARS: static contact angle on glass
REPORTED_METRIC: Water contact angle

[ask] Given CC(C)CCCC(C)CCCC(C)CCCCC(C)CCCC(C)CCCC(C)C (stereo not shown) [Squalane, squalane, reference compound] , respond with its Water contact angle.
[reply] 30.9 °

---

# PROCEDURE_DETAILS: In vitro skin permeation, Franz diffusion cell system
# Format: in vitro ADME, human
# PARTICULARS: 8 hrs; 1.0 wt % in squalane, 5 μl, nominal 90.91 μg/cm^2
In this section we review reported Total accumulated dose passed through the skin into the reservoir values for a set of molecules.
Please reply with the bare figure in μg/cm^2 and do not write the unit itself.

CC(C)CCCC(C)CCCC(C)CC(=O)OC[C@H](OC(=O)CC(C)CCCC(C)CCCC(C)C)C1OC(=O)C(OC(=O)CC(C)CCCC(C)CCCC(C)C)=C1OC(=O)CC(C)CCCC(C)CCCC(C)C (stereo partly shown)	0.03
CC(C)CCCC(C)CCCC(C)CC(=O)OC[C@H](OC(=O)CC(C)CCCC(C)CCCC(C)C)C1OC(=O)C(O)=C1O (stereo partly shown)	0.18
CC(C)CCCC(C)CCCC(C)CC(=O)OC[C@H](OC(=O)CC(C)CCCC(C)CCCC(C)C)C1OC(=O)C(O)=C1OC(=O)CC(C)CCCC(C)CCCC(C)C (stereo partly shown)	0.00

[ask] Identify measured Total accumulated dose passed through the skin into the reservoir associated with CCCCCCCCC(CCCCCC)C(=O)OCC(OC(=O)C(CCCCCC)CCCCCCCC)C1OC(=O)C(OC(=O)C(CCCCCC)CCCCCCCC)=C1OC(=O)C(CCCCCC)CCCCCCCC (stereo not shown) [Tetrahexydecyl ascorbate, tetrahexydecyl ascorbate, reference compound]
[reply] 0.00

Origin of values: patent US20260207459A1
